# maps each entry to its viability, T/C
Tested on: 596521-263-R-J1-PDC complex spheroids, viability % of control;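 also: spheroids exposed to drugs for 7 days before viability reading; 100% = DMSO vehicle control viability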
Experimental details: Anticancer human tumor 596521-263-R-J1-PDC patient-derived soft tissue sarcoma cell line growth inhibition [GQUAD]
Run parameters: second compound 0.316 µM; first compound 3.16 µM; active compounds read low

Compound | Unit abbrev | viability, T/C
CC(C)n1c(=O)n(C)c2cnc3cc(F)c(-c4ccc(OCCCN5CCCCC5)nc4)cc3c21 + CN(C)c1ccc(Nc2c3ccc(NC(=O)CCN4CCCC4)cc3nc3cc(NC(=O)CCN4CCCC4)ccc23)cc1 | % | 84.7
COc1ncnc(C2CC2)c1-c1ncc2cnn(Cc3ccc(-c4nc(C(F)(F)F)cn4C(C)C)cc3)c2n1 + CN(C)c1ccc(Nc2c3ccc(NC(=O)CCN4CCCC4)cc3nc3cc(NC(=O)CCN4CCCC4)ccc23)cc1 | % | 104
C#Cc1c(F)ccc2cc(O)cc(-c3ncc4c(N5CC6CCC(C5)N6)nc(OCC56CCCN5CC(F)C6)nc4c3F)c12 (stereo not given) + CN(C)c1ccc(Nc2c3ccc(NC(=O)CCN4CCCC4)cc3nc3cc(NC(=O)CCN4CCCC4)ccc23)cc1 | % | 104
COc1ncnc(C2CC2)c1-c1ncc2cnn(Cc3ccc(-c4nc(C(F)(F)F)cn4C(C)C)cc3)c2n1 + Cc1[nH]c2ccc(F)cc2c1-c1nc2c3cccnc3c3ncccc3c2[nH]1 | % | 27.8
C#Cc1c(F)ccc2cc(O)cc(-c3ncc4c(N5CC6CCC(C5)N6)nc(OCC56CCCN5CC(F)C6)nc4c3F)c12 (stereo not given) + Cc1[nH]c2ccc(F)cc2c1-c1nc2c3cccnc3c3ncccc3c2[nH]1 | % | 16.1
